test_description: Stability of linkers L1-L4 conjugated to FGF21 (LC-MS)
Type: physicochemical
reported_conditions: linker conjugated to FGF21ΔH-A129C, +4° C. storage, LC-MS, of total measured protein; 0 hrs
Method: The following experiment was performed to investigate the chemical stability over 2 weeks of the four linkers upon conjugation to FGF21: each linker was conjugated to FGF21, placed at +4° C. storage conditions, and aliquots were removed and quenched by freezing at specific time points, and linker stability was monitored by LCMS analysis. The four linkers were dissolved in DMSO from lyophilized stock material. […] L1 was reacted with protein for 30 mins; L2, L3 and L4 were reacted for 2 hrs. […]
quantity: 0 linker (unconjugated protein)

Consider the following items and state reported 0 linker (unconjugated protein) for each.
1. CC1=CC(=O)N(CCC(=O)NCCOCCOCCC(=O)Nc2ccc(CCC(=O)N3CCC3=O)cc2)C1=O
2. CC1=CC(=O)N(CC2CCC(C(=O)NCCOCCOCCC(=O)Nc3ccc(CCC(=O)N4CCC4=O)cc3)CC2)C1=O (stereo not shown)
3. CC1=CC(=O)N(CCOCCOCCC(=O)Nc2ccc(CCC(=O)N3CCC3=O)cc2)C1=O
4. O=C(CCN1C(=O)C=CC1=O)NCCOCCOCCC(=O)Nc1ccc(CCC(=O)N2CCC2=O)cc1

(A)
22%
20%
19%
13%
